# measuredOn: GRID2IP_2, A4D2P6
# Sequence (A4D2P6 272-370): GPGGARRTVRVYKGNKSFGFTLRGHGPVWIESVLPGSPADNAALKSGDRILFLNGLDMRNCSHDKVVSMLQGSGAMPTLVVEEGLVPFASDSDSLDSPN
# procedureSummary: holdup assay
# Set-up: key: below the threshold = too weak to quantify, mostly under pKd 3.1 to 4
# conditionDescription: plain residues with an end cap or a label only (N-terminal biotin on a linker: ado-ado)
reportedMetric: pKd

binder	observedResult
NHSSSPETTA [TRMT13, Q9NUP7]	below the threshold
QMNQTLPVQV [EPHB3, P54753]	3.58
IPLDGETEEL [MYOZ1, Q9NP98]	below the threshold
YRLAQESGLV [ABCC6, O95255]	below the threshold
